Assay: PAMPA (parallel artificial membrane permeability assay)
Type: in vitro ADME
Conditions: PAMPA; membrane permeation rate (Pe); 50 mM MOPSO buffer pH 6.5 with 5.0% glycocholic acid, 37° C., 18 hours; read-out: iPAMPA Pe
Starred links: 1 amine or outer side, 2 acyl side, 3 side chain; linkers in the order of their positions; H or OH if unused. Positions of bridges follow the written chain, without caps; N, C: chain ends. Non-standard residues stand in square brackets, D forms with d. Residues, ends and D or L forms follow the SMILES beside them. *: point of attachment. NMeF = CN[C@@H](Cc1ccccc1)C(=O)O; NMeGABA = CN(CCCC(=O)[*:2])[*:1]; NMeL = CN[C@@H](CC(C)C)C(=O)O; NMeA = CN[C@@H](C)C(=O)O; Piperidide = C1CCN(*)CC1; dNMeA = CN[C@H](C)C(=O)O; β3hA = C[C@H](N)CC(=O)O; Sar = CNCC(=O)O; tBu = CC(C)(C)*
Use 8 ×10⁻⁶ cm/s as the dividing line for Papp at 18 hours, 50 µM, with the line itself on the label 1 side and lower values as label 0.

compound="CC(C)C[C@@H]1NC(=O)[C@H](CC(C)C)N(C)C(=O)[C@H](Cc2ccccc2)N(C)C(=O)[C@H]([C@@H](C)O)NC(=O)[C@H](CC(C)C)N(C)C(=O)CN(C)C(=O)CCCN(C)C(=O)C[C@@H](C(=O)N2CCCCC2)NC1=O [DP-713] ([NMeGABA][Sar][NMeL]T[NMeF][NMeL]LD-Piperidide; lactam N-8)" group="label 1"
compound="CC(C)C[C@@H]1NC(=O)[C@H](Cc2ccccc2)N(C)C(=O)[C@H](CC(C)C)N(C)C(=O)[C@@H](C)N(C)C(=O)C[C@H](C)NC(=O)[C@H](CC(C)C)N(C)C(=O)[C@H](Cc2ccccc2)N(C)C(=O)[C@H]([C@@H](C)O)NC(=O)[C@H](Cc2ccccc2)N(C)C1=O [DP-793] (cyclo(L[NMeF]T[NMeF][NMeL][β3hA][dNMeA][NMeL][NMeF]))" group="label 1"
compound="CC(C)C[C@@H]1NC(=O)[C@H]([C@@H](C)O)NC(=O)[C@H](CC(C)C)N(C)C(=O)CN(C)C(=O)[C@H](Cc2ccccc2)N(C)C(=O)[C@H](C(C)C)NC(=O)C[C@@H](C(=O)N2CCCCC2)NC(=O)[C@H](CC(C)C)N(C)C1=O [DP-690] (V[NMeF][Sar][NMeL]TL[NMeL]D-Piperidide; lactam N-8)" group="label 1"

Task item: Given C=C1CCC(=O)NCC(=O)N(C)[C@@H](C)C(=O)N[C@@H](CC(C)C)C(=O)N[C@@H](C(C)C)C(=O)N(C)[C@@H](CC(C)C)C(=O)N[C@@H](Cc2ccccc2)C(=O)N(C)[C@@H](Cc2ccccc2)C(=O)N[C@@H]([C@@H](C)CC)C(=O)N(C)[C@@H](C)C(=O)N[C@@H](CC(C)C)C(=O)N[C@@H]([C@@H](C)O)C(=O)N[C@H](C(=O)N2CCCCC2)Cc2ccc1cc2 [DP-887] , state whether its Papp at 18 hours, 50 µM is at least 8 ×10⁻⁶ cm/s.
Reply: label 0

Task item: Given CC(C)C[C@H]1C(=O)N[C@@H](COC(C)(C)C)C(=O)N[C@@H](C)CC(=O)N[C@H](C)C(=O)N(C)[C@@H](C)C(=O)N(C)[C@@H](Cc2ccccc2)C(=O)N(C)[C@@H](C)C(=O)N[C@@H]([C@@H](C)O)C(=O)N(C)[C@@H](C)C(=O)N1C [DP-786] (cyclo([NMeA][NMeF][NMeA]T[NMeA][NMeL]S(tBu)[β3hA][dA])) , state whether its Papp at 18 hours, 50 µM is at least 8 ×10⁻⁶ cm/s.
Reply: label 0
